Test system: NCI-H522 lung
measurement-protocol: NCI-60 one-dose screen, 48 h (100 = growth as untreated, 0 = no growth, -100 = all killed)
condition: 10 µM unless noted
About 83,000 compounds went through this panel and 20% of them were active in at least one assay; those are over-represented in the sample as a whole.
growth class ranges: range 1 = under 40%, range 2 = from 40% up to 70%, range 3 = 70% and over

**Query** Exercise: read the entry "CCCCN(Cc1ccc(C(=O)NO)cc1)C(=O)Nc1ccc(OCCCCCCCCCn2cc(CCCCC(=O)N[C@H](C(=O)N3C[C@H](O)C[C@H]3C(=O)NCc3ccc(-c4scnc4C)cc3)C(C)(C)C)nn2)cc1" and state which class it falls under.
**Result** range 1

**Query** Exercise: read the entry COc1ccc(-n2sc(=O)n(Cc3ccc(COC(=O)C(C)c4ccc(CC(C)C)cc4)cc3)c2=O)cc1 (stereo not given) and state which class it falls under.
**Result** range 1

**Query** Exercise: read the entry "CNC1(C#N)CCN(Cc2ccccc2)CC1" and state which class it falls under.
**Result** range 3

**Query** Exercise: read the entry "CCCCn1c(=O)[nH]c(N)c(C(c2ccc(F)cc2)c2c(N)[nH]c(=O)n(CCCC)c2=O)c1=O" and state which class it falls under.
**Result** range 2

**Query** Exercise: read the entry COc1cc(C2CC(c3ccc(Nc4nc(Nc5ccc(F)cc5)nc(Nc5ccc(Cl)cc5)n4)cc3)=NN2C(C)=O)cc(OC)c1OC (stereo not given) and state which class it falls under.
**Result** range 3

**Query** Exercise: read the entry "Cc1nc(Nc2ccc(N)cc2)c2ccccc2n1" and state which class it falls under.
**Result** range 3

**Query** Exercise: read the entry "CCOc1ccc(S(=O)(=O)c2ccc(C)cc2)c2c1no[n+]2[O-]" and state which class it falls under.
**Result** range 2

**Query** Exercise: read the entry "COc1cccc(-c2cnco2)c1OCc1c(C)c(COc2c(OC)cccc2-c2cnco2)c(C)c(COc2c(OC)cccc2-c2cnco2)c1C" and state which class it falls under.
**Result** range 1

**Query** Exercise: read the entry "CCN(CC)S(=O)(=O)c1ccc(O)c(NC(=O)c2[nH]c(C)c(C(C)=O)c2CCc2ccc(Cl)cc2)c1" and state which class it falls under.
**Result** range 1

**Query** Exercise: read the entry "Cc1cc(C)on1" and state which class it falls under.
**Result** range 3

**Query** Exercise: read the entry "CCN(CC)N=Nc1nn(C(=O)Nc2ccc(Cc3ccccc3)cc2)c2ccc(Cl)cc12" and state which class it falls under.
**Result** range 2

**Query** Exercise: read the entry "Cc1nc(Nc2ccccn2)sc1C(=O)/C=C/c1ccc(Br)cc1" and state which class it falls under.
**Result** range 2

**Query** Exercise: read the entry "CCn1c(Sc2nnc(NC(C)=O)s2)nc2c1c(=O)n(C)c(=O)n2C" and state which class it falls under.
**Result** range 3

**Query** Exercise: read the entry "CC[C@]1(O)C[C@H]2CN(CCc3c([nH]c4ccccc34)[C@@](C(=O)OC)(c3cc4c(cc3OC)N(C=O)[C@H]3[C@@](O)(C(=O)OC)[C@H](OC(C)=O)[C@]5(CC)C=CCN6CC[C@]43[C@@H]65)C2)C1" and state which class it falls under.
**Result** range 1

**Query** Exercise: read the entry COc1cc(C2C=C(c3cccc(NC(C)=O)c3)Nc3ncnn32)cc(OC)c1OC (stereo not given) and state which class it falls under.
**Result** range 1
